The entries below are paired with their reported growth.
Test system: E. coli TESEC Alr+ wild-type control
Assay: growth (OD600 after 10 h); higher = more growth (less inhibition)
Assay setup: compound 0.1 mM; raw OD600 reference: median of DMSO wells 0.241, cell-free background 0.041
Where a name gives a salt, the structure may show the parent alone.
Output: the number by itself.

Examples from the recorded data:
{"columns": ["Molecule", "Experimental system", "Assay value"],
 "data": [
  ["CCCc1ncc(C[n+]2ccccc2C)c(N)n1 [Amprolium hydrochloride]", "E. coli TESEC Alr+ wild-type control", 0.245],
  ["COCC(=O)Nc1c(I)c(C(=O)NCC(O)CO)c(I)c(C(=O)N(C)CC(O)CO)c1I (centres undefined) [Iopromide]", "E. coli TESEC Alr+ wild-type control", 0.259],
  ["NS(=O)(=O)c1cc2c(cc1Cl)NC(C(Cl)Cl)NS2(=O)=O (centres undefined) [Trichlormethiazide]", "E. coli TESEC Alr+ wild-type control", 0.243],
  ["CCC(C)(C)c1ccc(CC(C)CN2C[C@@H](C)O[C@@H](C)C2)cc1 (some centres undefined) [Amorolfine hydrochloride]", "E. coli TESEC Alr+ wild-type control", 0.0552]
]}

query: Lab request: please report growth under test system E. coli TESEC Alr+ wild-type control for "CC[C@H]1OC(=O)[C@H](C)[C@@H](O[C@H]2C[C@@](C)(OC)[C@@H](O)[C@H](C)O2)[C@H](C)[C@@H](O[C@@H]2O[C@H](C)C[C@H](N(C)C)[C@H]2O)[C@](C)(OC)C[C@@H](C)C(=O)[C@H](C)[C@@H](O)[C@]1(C)O"
result: 0.0414

query: // fetch E. coli TESEC Alr+ wild-type control growth for "S=c1[nH]cnc2nc[nH]c12"
result: 0.062

query: Give the reported growth for CCN(CC)CCOCCOC(=O)C1(c2ccccc2)CCCC1 [Carbetapentane citrate] (system: E. coli TESEC Alr+ wild-type control).
result: 0.203

query: Hello, I am looking for reported growth with E. coli TESEC Alr+ wild-type control for "O=C1CCc2cc(OCCCCc3nnnn3C3CCCCC3)ccc2N1" . Could you help?
result: 0.148

query: Reported growth for E. coli TESEC Alr+ wild-type control, given C[N+]1(CCCCC[N+]2(C)CCCC2)CCCC1 [Pentolinium bitartrate] ?
result: 0.24

query: // lookup growth | system=E. coli TESEC Alr+ wild-type control | key= CCCCN(CCCC)CCC(O)c1cc2c(Cl)cc(Cl)cc2c2cc(C(F)(F)F)ccc12 (centres undefined) [Halofantrine hydrochloride]
result: 0.24
